# assayMethodText: clinical;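 note: oral tablet given every 12 h for six days, about 14 mg/kg per day for this subject, with levels then followed in plasma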
# Format: in vivo
# testConditions: human, in vivo, 500 mg; Subject B, CLT day 3; read-out: Levels Plasma
measuredProperty: concentration at 3 day of CLT dosing (nM)
Report the value in nM with no unit label.

According to the records, this compound `Clc1ccccc1C(c1ccccc1)c1ccccc1` displays concentration at 3 day of CLT dosing of 1650

* * *

# assayMethodText: clinical
# Type: in vivo
# testConditions: human, in vivo, 500 mg; Subject A, CLT day 6; read-out: Levels Plasma
measuredProperty: concentration at 6 day of CLT dosing (nM)
Report the value in nM with no unit label.

According to the records, this compound `Clc1ccccc1C(c1ccccc1)c1ccccc1` displays concentration at 6 day of CLT dosing of 1800

Source listed as patent US7531573B2.
